# System: HeLa
# assay-comment: Cellular uptake in human HeLa cells at 0.3 to 3 uM after 1 hr by confocal laser-scanning microscopy
# Type: ADME, cell-based
Where a SMILES comes first, the peptide text is derived from it. The star is where a group is joined. Geranylgeranyl = CC(C)=CCC/C(C)=C/CC/C(C)=C/CC/C(C)=C/C*; Acryloyl(2E,3-(2-furyl)) = O=C(/C=C/c1ccco1)*
observed-property: Activity

1. CC(C)=CCC/C(C)=C/CC/C(C)=C/CC/C(C)=C/CSC[C@H](NC(=O)[C@H](CCCNC(=N)N)NC(=O)/C=C/c1ccco1)C(N)=O ... Active
2. CC(C)=CCC/C(C)=C/CC/C(C)=C/CC/C(C)=C/CSC[C@H](NC(=O)[C@H](CCCNC(=N)N)NC(=O)[C@H](CCCNC(=N)N)NC(=O)/C=C/c1ccco1)C(N)=O ... Active
3. CC(=O)N[C@@H](CCCCNC(=O)/C=C/c1ccco1)C(=O)N[C@@H](C)C(=O)N[C@@H](CO)C(=O)N[C@@H](CCCNC(=N)N)C(=O)N[C@@H](CCCNC(=N)N)C(=O)N[C@@H](CSC/C=C(\C)CC/C=C(\C)CC/C=C(\C)CCC=C(C)C)C(N)=O (Ac-K(Acryloyl(2E,3-(2-furyl)))ASRRC(Geranylgeranyl)-NH2) ... Active
4. CC(=O)N[C@@H](CCCCNC(=O)/C=C/c1ccco1)C(=O)N[C@@H](C)C(=O)N[C@@H](C)C(=O)N[C@@H](C)C(=O)N[C@@H](CO)C(=O)N[C@@H](CCCNC(=N)N)C(=O)N[C@@H](CCCNC(=N)N)C(=O)N[C@@H](CSC/C=C(\C)CC/C=C(\C)CC/C=C(\C)CCC=C(C)C)C(N)=O (Ac-K(Acryloyl(2E,3-(2-furyl)))AAASRRC(Geranylgeranyl)-NH2) ... Active

Entry source: ChEMBL document CHEMBL1153215
